# Test system: Klebsiella aerogenes DSM 30053
# Assay comment: fold change of Histamine concentration vs plate DMSO controls (fold change (ratio)); higher = more amine produced, active = hit call of the paper (significant change in both replicates, either direction)
# Condition summary: incubation time: 27 h, anaerobic, 37 °C
Structures can show the parent of a compound that is named as a salt.

| Molecule | fold change of Histamine concentration |
| --- | --- |
| OCCN1C[C@H](O)[C@@H](O)[C@H](O)[C@H]1CO [Miglitol] (20 µM) | 1.02 |
| CN1[C@@H]2CC[C@H]1C[C@@H](OC(=O)c1c[nH]c3ccccc13)C2 [Tropisetron hydrochloride] (20 µM) | 0.94 |
| CCCc1cc(C(N)=S)ccn1 [Prothionamide] (20 µM) | 1.01 |
| CC(COc1ccccc1)NN (stereo not given) [Phenoxypropazine dihydrochloride] (20 µM) | 1.05 |
| CCc1cccc(CC)c1NC(=O)CN(CC(=O)O)CC(=O)O [Etifenin] (20 µM) | 0.925 |
| COc1ccc2c3c1O[C@H]1C[C@@H](O)C=C[C@@]31CCN(C)C2 [Galanthamine hydrobromide] (20 µM) | 1.01 |
| Cc1nc(=O)c2cc(CN(C)c3ccc(C(=O)N[C@@H](CCC(=O)O)C(=O)O)s3)ccc2[nH]1 [Raltitrexed] (20 µM) | 1 |
| NC(=O)c1cc[n+](CC2=C(C(=O)O)N3C(=O)[C@@H](NC(=O)C(c4ccccc4)S(=O)(=O)[O-])[C@H]3SC2)cc1 (stereo not given in full) [Cefsulodin Sodium Salt Hydrate] (20 µM) | 1.03 |
| CN(C)c1cc(NC(=O)CNC(C)(C)C)c(O)c2c1C[C@H]1C[C@H]3[C@H](N(C)C)C(=O)C(C(N)=O)=C(O)[C@@]3(O)C(=O)C1=C2O [Tigecycline] (20 µM) | 0.865 |
| CC(C)(C)NCC(O)c1cc(O)cc(O)c1 (stereo not given) [Terbutaline hemisulfate] (20 µM) | 1.02 |
| Cc1ccccc1C(OCCN(C)C)c1ccccc1 (stereo not given) [Orphenadrine hydrochloride] (20 µM) | 0.902 |
| CC(C[N+](C)(C)C)OC(N)=O (stereo not given) [Bethanechol chloride] (20 µM) | 0.98 |
| Nc1ccc(S(=O)(=O)Nc2ccc(Cl)nn2)cc1 [Sulfachloropyridazine] (20 µM) | 0.939 |
| O=C1c2cccc3c2[C@H](CCC3)CN1[C@@H]1CN2CCC1CC2 [Palonosetron hydrochloride] (20 µM) | 1.09 |
| COC(=O)[C@H](Cc1ccccc1)NC(=O)[C@H](CC(=O)O)NCCCc1ccc(OC)c(O)c1 [Advantame] (50 µM) | 1 |
